Conditions: Crystal; DTA
Listed here: items and their measured Normal melting temperature.
Write the value in °C as a bare number.

Use the examples below as a reference point.
smiles_code=CC(=O)O recorded_endpoint="Normal melting temperature" recorded_result=16.80
smiles_code=O recorded_endpoint="Normal melting temperature" recorded_result=0.00
smiles_code=CCC(=O)O recorded_endpoint="Normal melting temperature" recorded_result=-21.20

In: Which measured Normal melting temperature value corresponds to CCCC(=O)O ?
Out: -4.50

In: Which measured Normal melting temperature value corresponds to O=CO ?
Out: 9.70
